These measurements were taken from paper PMC6316234.

# System: K562
# test-name: Anti-proliferative activity, SRB staining assay, K562
# Format: cell-based
# test-parameters: Homo sapiens, 72 h
pIC50: −log10 of the molar value.
readout: pIC50

Solved entries:
Form: compound = COc1cccc2c1C(=O)c1c(O)c3c(c(O)c1C2=O)C[C@@](O)(C(=O)CO)C[C@@H]3O[C@H]1C[C@H](N)[C@H](O)[C@H](C)O1 [Doxorubicin, reference compound] ; pIC50 = 5.97

Form: compound = COC(=O)[C@@H]1[C@@H](CNC(=O)c2cc(Br)c[nH]2)[C@H](CNC(=O)c2cc(Br)c[nH]2)[C@H]1C(=O)O [Compound 3, ageleste A] ; pIC50 = 4.42

Form: compound = O=C(NC[C@H]1[C@H](CNC(=O)c2cc(Br)c[nH]2)[C@@H](C(=O)O)[C@@H]1C(=O)O)c1cc(Br)c[nH]1 [Compound 2, ageleste C] ; pIC50 = 4.72

[P] COC(=O)[C@@H]1[C@@H](CNC(=O)c2cc(Br)c[nH]2)[C@H](CNC(=O)c2cc(Br)c[nH]2)[C@H]1C(=O)OC [Compound 4, ageleste B]
[Q] NC1=NC(=O)C([C@@H]2[C@@H](CNC(=O)c3cc(Br)c[nH]3)[C@H](CNC(=O)c3cc(Br)c[nH]3)[C@H]2C2NC(N)=NC2=O)N1 (mixture of isomers) [Compound 1, dioxysceptrin]
Which value of pIC50 is greater, the one for P or the one for Q ? Kindly state the label of the option you pick.
Q

----------
# target-entity: Candida albicans-derived isocitrate lyase (ICL) (Candida albicans, UniProt Q9P8Q7)
# Sequence (Q9P8Q7 whole entry): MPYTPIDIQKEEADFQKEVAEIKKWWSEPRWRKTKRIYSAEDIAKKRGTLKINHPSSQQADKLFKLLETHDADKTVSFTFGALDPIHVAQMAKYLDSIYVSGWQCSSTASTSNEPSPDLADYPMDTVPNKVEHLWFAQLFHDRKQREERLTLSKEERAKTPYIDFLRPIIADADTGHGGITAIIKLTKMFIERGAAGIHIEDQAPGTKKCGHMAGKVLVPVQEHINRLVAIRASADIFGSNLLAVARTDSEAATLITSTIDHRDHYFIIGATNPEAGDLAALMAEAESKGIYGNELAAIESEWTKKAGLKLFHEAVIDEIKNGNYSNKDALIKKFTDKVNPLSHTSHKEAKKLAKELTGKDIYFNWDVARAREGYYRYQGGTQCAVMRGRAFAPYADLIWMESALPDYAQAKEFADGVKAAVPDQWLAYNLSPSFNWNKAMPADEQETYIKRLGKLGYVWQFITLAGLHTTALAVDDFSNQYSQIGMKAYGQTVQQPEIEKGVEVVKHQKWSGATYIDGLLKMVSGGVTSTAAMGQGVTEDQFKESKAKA
# test-name: biochemical
# Type: biochemical
# test-parameters: recombinant ICL, 37 °C, 30 min; read-out: IC50 ICL
readout: IC50 (µM)

[a] COC(=O)[C@@H]1[C@@H](CNC(=O)c2cc(Br)c[nH]2)[C@H](CNC(=O)c2cc(Br)c[nH]2)[C@H]1C(=O)OC [Compound 4, ageleste B]
[b] O=C(NC[C@H]1[C@H](CNC(=O)c2cc(Br)c[nH]2)[C@@H](C(=O)O)[C@@H]1C(=O)O)c1cc(Br)c[nH]1 [Compound 2, ageleste C]
Select the item whose IC50 value is smaller, choosing between a and b . Kindly state the label of the option you pick.
b
